Where do the numbers come from? From PubChem BioAssay (NCI).

test: NCI Yeast Anticancer Drug Screen. Data for the rad52 strain (AID 147);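 also: 0% = growth of vehicle-treated control cultures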; settings: S. cerevisiae rad52 mutant growth inhibition; at 100.0 µM; stronger effect = higher value
The panel holds about 79,000 compounds, 15% with a hit somewhere; the sample as a whole holds those more often.
Quantity Kind: growth inhibition (%)
Write the number in % without appending the unit.

• COc1cc(C2c3cc4c(cc3OC(Nc3ccccc3)C2C)OCO4)cc(OC)c1O (stereo not drawn) = 86
• C[S+](C)C1(c2ccccc2)C(=O)c2ccccc2C1=O = 73

Now take the following compound into account.
[Q] # input compound: CCOP(=O)(OCC)C(Cc1ccccc1)N=C(c1ccccc1)c1ccccc1 (stereo not drawn) ; wanted: its growth inhibition
[A] 98
